Biological target: UniProt P10632
Experiment: Inhibition of CYP2C8 in human liver microsomes assessed as enzyme-mediated metabolite formation at 10 uM using paclitaxel as substrate incubated for 5 mins followed by NADPH addition measured after 30 mins by LC-MS/MS analysis relative to control
Format: ADME
Parameters: scale not given: the % may be the effect or the level left
Details: probe paclitaxel, read-out: Activity
quantity_kind: activity at 0.5 h, 10 µM (%)
Your answer should be a plain number; it is taken to be in %.

Reported activity at 0.5 h, 10 µM ( CCCCCCCC(=O)CCc1ccc(O)c(OC)c1 ) = 45.5

====

Target: CYP2C8 (Homo sapiens)
Sequence (P10632 whole entry): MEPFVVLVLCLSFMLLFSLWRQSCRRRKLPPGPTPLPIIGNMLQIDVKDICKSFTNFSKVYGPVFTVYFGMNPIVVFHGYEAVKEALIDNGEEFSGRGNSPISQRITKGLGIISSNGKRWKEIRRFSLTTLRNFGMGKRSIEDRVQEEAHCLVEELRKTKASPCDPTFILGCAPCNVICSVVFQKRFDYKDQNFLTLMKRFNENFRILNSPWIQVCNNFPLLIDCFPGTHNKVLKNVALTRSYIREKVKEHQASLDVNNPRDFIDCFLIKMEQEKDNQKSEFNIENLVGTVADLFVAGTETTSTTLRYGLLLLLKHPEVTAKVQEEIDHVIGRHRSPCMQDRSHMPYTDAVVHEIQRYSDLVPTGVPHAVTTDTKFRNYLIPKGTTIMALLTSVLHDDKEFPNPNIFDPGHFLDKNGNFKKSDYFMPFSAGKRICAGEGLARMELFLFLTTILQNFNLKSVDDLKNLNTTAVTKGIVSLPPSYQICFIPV
Assay: Inhibition of CYP2C8 in human liver microsomes assessed as enzyme-mediated metabolite formation at 0.1 uM using paclitaxel as substrate preincubated for 20 mins followed by substrate addition measured after 30 mins in presence of NADPH by LC-MS/MS analysis relative to control
Assay type: ADME
Design: scale not given: the % may be the effect or the level left
Conditions: probe paclitaxel, read-out: Activity
quantity_kind: activity at 0.5 h, 0.1 µM (%)
Kindly answer with a numeric value in %, unit omitted.

Entry CCCCCCCC(=O)CCc1ccc(O)c(OC)c1 ; activity at 0.5 h, 0.1 µM = 83.2

====

Biological target: Cytochrome P450 2C19 (Homo sapiens, UniProt P33261)
Sequence (P33261 whole entry): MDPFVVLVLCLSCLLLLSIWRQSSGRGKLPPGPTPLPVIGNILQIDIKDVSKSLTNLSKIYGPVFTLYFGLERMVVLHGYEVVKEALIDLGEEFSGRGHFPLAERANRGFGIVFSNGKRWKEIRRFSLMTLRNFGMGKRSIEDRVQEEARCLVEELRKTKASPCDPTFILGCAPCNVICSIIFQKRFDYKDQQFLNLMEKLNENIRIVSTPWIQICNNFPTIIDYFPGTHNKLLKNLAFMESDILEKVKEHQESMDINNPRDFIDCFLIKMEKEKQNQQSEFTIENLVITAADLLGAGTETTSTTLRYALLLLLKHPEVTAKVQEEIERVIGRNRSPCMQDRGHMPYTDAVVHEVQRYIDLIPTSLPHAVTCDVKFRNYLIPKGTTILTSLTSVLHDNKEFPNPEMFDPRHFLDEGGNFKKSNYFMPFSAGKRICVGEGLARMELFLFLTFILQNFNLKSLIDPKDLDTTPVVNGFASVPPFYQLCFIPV
Experiment: Inhibition of CYP2C19 in human liver microsomes using (S)-mephenytoin as substrate preincubated for 20 mins followed by substrate addition measured after 30 mins in presence of NADPH by LC-MS/MS analysis
Type: ADME
quantity_kind: pIC50
In simple prose, pIC50 is minus the logarithm base ten of a concentration in moles per litre.

Lab note: measured pIC50 of CCCCCCCC(=O)CCc1ccc(O)c(OC)c1 was 5.44

====

Molecular target: CYP2B6 (Homo sapiens, UniProt P20813)
Sequence (P20813 whole entry): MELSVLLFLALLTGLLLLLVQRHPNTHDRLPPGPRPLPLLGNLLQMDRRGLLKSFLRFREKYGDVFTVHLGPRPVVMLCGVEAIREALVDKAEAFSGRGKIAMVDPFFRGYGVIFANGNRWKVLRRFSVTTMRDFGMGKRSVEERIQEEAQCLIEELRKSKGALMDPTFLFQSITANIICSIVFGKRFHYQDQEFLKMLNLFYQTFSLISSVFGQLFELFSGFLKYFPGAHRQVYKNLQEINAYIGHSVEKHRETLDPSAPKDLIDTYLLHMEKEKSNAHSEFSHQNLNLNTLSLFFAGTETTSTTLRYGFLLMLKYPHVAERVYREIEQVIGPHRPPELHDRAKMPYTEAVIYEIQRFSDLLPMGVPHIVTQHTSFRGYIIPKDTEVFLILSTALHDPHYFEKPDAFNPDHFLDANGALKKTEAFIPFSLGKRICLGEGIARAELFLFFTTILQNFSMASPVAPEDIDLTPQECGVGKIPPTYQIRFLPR
Assay: Inhibition of CYP2B6 in human liver microsomes assessed as enzyme-mediated metabolite formation at 30 uM using bupropion as substrate preincubated for 20 mins followed by substrate addition measured after 30 mins in presence of NADPH by LC-MS/MS analysis relative to control
Format: ADME
Design: scale not given: the % may be the effect or the level left
Conditions: probe bupropion, read-out: Activity
quantity_kind: activity at 0.5 h, 30 µM (%)
Unit % implied. Number only.

CCCCCCCC(=O)CCc1ccc(O)c(OC)c1 yielded activity at 0.5 h, 30 µM of 45.5

====

Target: Cytochrome P450 2B6 (Homo sapiens, UniProt P20813)
Experiment: Inhibition of CYP2B6 in human liver microsomes assessed as enzyme-mediated metabolite formation using bupropion as substrate incubated for 5 mins followed by NADPH addition measured after 30 mins by LC-MS/MS analysis
Assay type: ADME
quantity_kind: pIC50
For clarity, pIC50 is expressed as the negative log10 of concentration in mol/L.

Record CCCCCCCC(=O)CCc1ccc(O)c(OC)c1 , field pIC50: 4.81

====

Target: UniProtKB P08684
Sequence (P08684 whole entry): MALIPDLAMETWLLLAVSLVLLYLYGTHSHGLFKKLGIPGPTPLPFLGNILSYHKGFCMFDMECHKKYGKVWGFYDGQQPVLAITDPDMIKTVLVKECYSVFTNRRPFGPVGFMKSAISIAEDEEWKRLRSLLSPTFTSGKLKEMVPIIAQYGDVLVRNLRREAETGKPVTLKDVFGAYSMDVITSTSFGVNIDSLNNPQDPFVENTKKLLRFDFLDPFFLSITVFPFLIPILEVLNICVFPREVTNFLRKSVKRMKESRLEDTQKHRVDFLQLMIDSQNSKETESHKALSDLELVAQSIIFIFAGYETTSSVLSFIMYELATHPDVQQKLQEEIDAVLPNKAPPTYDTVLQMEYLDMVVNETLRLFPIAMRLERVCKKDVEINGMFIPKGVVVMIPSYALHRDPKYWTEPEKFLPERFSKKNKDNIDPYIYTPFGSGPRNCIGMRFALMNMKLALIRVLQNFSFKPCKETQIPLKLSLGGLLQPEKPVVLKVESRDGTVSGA
Test: Inhibition of CYP3A4 in human liver microsomes assessed as enzyme-mediated metabolite formation at 10 uM using midazolam as substrate incubated for 5 mins followed by NADPH addition measured after 30 mins by LC-MS/MS analysis relative to control
Assay type: ADME
Parameters: scale not given: the % may be the effect or the level left
Settings: probe midazolam, read-out: Activity
quantity_kind: activity at 0.5 h, 10 µM (%)
Just the number in %, nothing appended.

The recorded activity at 0.5 h, 10 µM for entry CCCCCCCC(=O)CCc1ccc(O)c(OC)c1 equals 71

====

Target: CYP2D6 (Homo sapiens)
Sequence (P10635 whole entry): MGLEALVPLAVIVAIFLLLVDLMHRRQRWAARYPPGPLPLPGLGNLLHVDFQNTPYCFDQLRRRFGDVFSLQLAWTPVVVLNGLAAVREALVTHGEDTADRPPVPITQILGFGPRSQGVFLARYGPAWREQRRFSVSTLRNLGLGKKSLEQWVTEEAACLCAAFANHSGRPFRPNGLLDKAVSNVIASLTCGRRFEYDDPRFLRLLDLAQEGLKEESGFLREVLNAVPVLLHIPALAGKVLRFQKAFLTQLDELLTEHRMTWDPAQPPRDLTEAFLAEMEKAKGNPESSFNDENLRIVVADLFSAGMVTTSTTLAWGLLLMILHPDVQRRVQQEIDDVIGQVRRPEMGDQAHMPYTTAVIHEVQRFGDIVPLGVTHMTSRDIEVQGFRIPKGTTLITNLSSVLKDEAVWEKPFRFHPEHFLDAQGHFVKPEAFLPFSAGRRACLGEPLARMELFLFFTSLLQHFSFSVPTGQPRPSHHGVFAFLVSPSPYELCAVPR
Experiment: Inhibition of CYP2D6 in human liver microsomes assessed as enzyme-mediated metabolite formation at 0.3 uM using dextromethorphan as substrate preincubated for 20 mins followed by substrate addition measured after 30 mins in presence of NADPH by LC-MS/MS analysis relative to control
Assay type: ADME
Parameters: scale not given: the % may be the effect or the level left
Conditions: probe dextromethorphan, read-out: Activity
quantity_kind: activity at 0.5 h, 0.3 µM
Answer with the figure and its unit, nothing else.

Item CCCCCCCC(=O)CCc1ccc(O)c(OC)c1 ; assay system CYP2D6 (Homo sapiens); activity at 0.5 h, 0.3 µM reported as 87%

====

Target: CYP2C19 (Homo sapiens)
Sequence (P33261 whole entry): as the sequence (P33261 whole entry) above
Test: Inhibition of CYP2C19 in human liver microsomes assessed as enzyme-mediated metabolite formation at 0.3 uM using (S)-mephenytoin as substrate preincubated for 20 mins followed by substrate addition measured after 30 mins in presence of NADPH by LC-MS/MS analysis relative to control
Assay type: ADME
Parameters: scale not given: the % may be the effect or the level left
Details: probe (S)-mephenytoin, read-out: Activity
quantity_kind: activity at 0.5 h, 0.3 µM (%)
Provide the reading as a plain figure in %.

Sure, the documented activity at 0.5 h, 0.3 µM for CCCCCCCC(=O)CCc1ccc(O)c(OC)c1 is 81.5

====

Biological target: Cytochrome P450 2C8 (Homo sapiens, UniProt P10632)
Experiment: Inhibition of CYP2C8 in human liver microsomes assessed as enzyme-mediated metabolite formation using paclitaxel as substrate incubated for 5 mins followed by NADPH addition measured after 30 mins by LC-MS/MS analysis
Type: ADME
quantity_kind: IC50 (µM)
Report as a plain number; the unit µM is understood.

The compound identified as CCCCCCCC(=O)CCc1ccc(O)c(OC)c1 registered its IC50 at 5.1

====

Molecular target: Cytochrome P450 2C9 (Homo sapiens)
Sequence (P11712 whole entry): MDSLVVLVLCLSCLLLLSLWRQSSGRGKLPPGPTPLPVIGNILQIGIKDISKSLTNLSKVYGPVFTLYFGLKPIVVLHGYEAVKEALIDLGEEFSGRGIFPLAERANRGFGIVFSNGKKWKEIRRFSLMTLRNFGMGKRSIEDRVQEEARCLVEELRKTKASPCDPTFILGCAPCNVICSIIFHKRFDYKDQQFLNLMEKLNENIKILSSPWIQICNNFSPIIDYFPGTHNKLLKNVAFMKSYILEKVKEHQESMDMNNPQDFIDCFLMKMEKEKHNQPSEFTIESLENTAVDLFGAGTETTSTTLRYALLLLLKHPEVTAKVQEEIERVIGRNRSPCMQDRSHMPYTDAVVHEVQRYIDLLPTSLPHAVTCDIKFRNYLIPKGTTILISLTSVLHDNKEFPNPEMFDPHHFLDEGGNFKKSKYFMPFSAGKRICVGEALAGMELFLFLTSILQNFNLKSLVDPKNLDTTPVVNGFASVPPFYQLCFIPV
Assay: Inhibition of CYP2C9 in human liver microsomes assessed as enzyme-mediated metabolite formation using diclofenac as substrate incubated for 5 mins followed by NADPH addition measured after 30 mins by LC-MS/MS analysis
Type: ADME
quantity_kind: IC50 (µM)
Report only the number, with the unit µM understood.

// returns IC50 for CCCCCCCC(=O)CCc1ccc(O)c(OC)c1 with Cytochrome P450 2C9 (Homo sapiens); value = 13.6

====

Biological target: CYP2A6 (Homo sapiens, UniProt P11509)
Sequence (P11509 whole entry): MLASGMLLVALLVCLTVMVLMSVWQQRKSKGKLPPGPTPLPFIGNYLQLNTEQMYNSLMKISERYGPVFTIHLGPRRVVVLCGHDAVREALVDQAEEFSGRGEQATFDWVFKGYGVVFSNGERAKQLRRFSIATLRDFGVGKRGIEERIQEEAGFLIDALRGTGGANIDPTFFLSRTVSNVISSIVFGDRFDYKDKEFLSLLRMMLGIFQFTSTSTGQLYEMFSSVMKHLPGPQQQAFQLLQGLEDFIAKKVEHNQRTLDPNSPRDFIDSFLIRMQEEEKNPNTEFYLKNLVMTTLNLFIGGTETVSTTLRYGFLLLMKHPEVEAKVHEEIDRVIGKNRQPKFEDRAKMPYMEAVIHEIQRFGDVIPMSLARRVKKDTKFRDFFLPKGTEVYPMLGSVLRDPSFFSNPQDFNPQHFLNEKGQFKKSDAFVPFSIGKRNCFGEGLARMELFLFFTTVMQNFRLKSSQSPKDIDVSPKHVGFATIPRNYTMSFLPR
Assay: Inhibition of CYP2A6 in human liver microsomes assessed as enzyme-mediated metabolite formation at 1 uM using coumarin as substrate incubated for 5 mins followed by NADPH addition measured after 30 mins by LC-MS/MS analysis relative to control
Assay type: ADME
Set-up: scale not given: the % may be the effect or the level left
Details: probe coumarin, read-out: Activity
quantity_kind: activity at 0.5 h, 1 µM
Answer format: value, then unit.

// recorded activity at 0.5 h, 1 µM for CCCCCCCC(=O)CCc1ccc(O)c(OC)c1 : 83.6%

====

Molecular target: CYP2A6 (Homo sapiens, UniProt P11509)
Experiment: Inhibition of CYP2A6 in human liver microsomes assessed as enzyme-mediated metabolite formation at 0.3 uM using coumarin as substrate incubated for 5 mins followed by NADPH addition measured after 30 mins by LC-MS/MS analysis relative to control
Format: ADME
Parameters: scale not given: the % may be the effect or the level left
Settings: probe coumarin, read-out: Activity
quantity_kind: activity at 0.5 h, 0.3 µM
Answer with the figure and its unit, nothing else.

compound CCCCCCCC(=O)CCc1ccc(O)c(OC)c1 , activity at 0.5 h, 0.3 µM observed: 83.8%

Value source: ChEMBL document CHEMBL4007467
